Test system: HeLa
protocol text: Primary qHTS to identify gynecologic anti-cancer compounds using libraries of approved drugs and bioactive compounds (AID 1345084); also: nearly all actives have a fitted effect of over 55% in size; also: potency is read from the fitted curve at half-maximal effect
test context: Gynecologic cancer cell panel viability, ATPlite luminescence, 48 h; series mostly up to 57.5 µM
Text: National Center for Advancing Translational Sciences [NCATS] Assay Overview: Chemotherapeutic drug responses vary from cancer to cancer and from patient to patient. […] ATPlite is a luminescence based assay reliant on the conversion of a luciferase substrate to light in the presence of ATP. As a cytotoxic compound will suppress growth and decrease the number of cells, the concentration of ATP will decrease, and less light signal will be detected in the well. […]
Inconclusive results are not listed. Calls of active or inactive are those of the source. Calls follow the shape of the dose curve; as a rule, active = well fitted cell-killing curve with a large enough effect; inconclusive = small, poorly fitted or top-dose-only effect, or effect the other way; inactive = flat fitted curve, though single readings scatter.
measurement label: Potency

{"columns": ["compound", "tested system", "measurement label", "result"],
 "data": [
  ["C/C=C/c1cc(OC)c2c(c1)[C@@H](C)[C@@H](c1ccc(O)c(OC)c1)O2", "HeLa", "Potency", "inactive"],
  ["C/C1=C\\CCC(C)CCO[C@@H]2O[C@H](CO[C@@H]3OC[C@H](O)[C@H](O)[C@H]3OC1=O)[C@@H](O)[C@H](O)[C@H]2O (stereo partly drawn)", "HeLa", "Potency", "inactive"],
  ["CC1(O)CCCC2(C)C1CCC13CC(CO)C(CCC12)C3 (stereo not drawn)", "HeLa", "Potency", "inactive"],
  ["CC1=CC(=O)CC2C1(O)CCC(C)C21CC(c2ccoc2)OC1=O (stereo not drawn)", "HeLa", "Potency", "inactive"]
]}

Query block: Request the reported Potency associated with C[C@H](Oc1ccc(S(C)(=O)=O)cc1C(=O)N1CCN(c2ncc(C(F)(F)F)cc2F)CC1)C(F)(F)F
Result block: inactive

Query block: Would you kindly repeat that for COc1ccc(C[C@H](N)C(=O)N[C@@H]2[C@H](O)[C@H](n3cnc4c(N(C)C)ncnc43)O[C@@H]2CO)cc1 ?
Result block: 1.26 µM (active)

Query block: For COc1ccc(/C=C/C(=O)O[C@@H]2[C@@H](O)[C@@H](O)[C@H](O[C@@H]3C=C(CO)[C@H]4[C@H](O[C@@H]5O[C@H](CO)[C@@H](O)[C@H](O)[C@H]5O)OC=C[C@H]43)O[C@H]2C)cc1O then?
Result block: inactive

Query block: Subsequent entry: C=C(C)C(=O)O[C@H]1C[C@@](C)(O)C(=O)CC(O)/C(C)=C\[C@H]2OC(=O)C(=C)[C@H]12 (stereo partly drawn)
Result block: inactive

----------
Test system: CRL-7250
protocol text: Cytotoxic Profiling of Annotated Libraries Using Quantitative High-Throughput Screening (AID 1296008); also: % is scaled to controls: 0 for no effect and ±100 for the full control effect; nearly all actives have a fitted effect of over 60% in size
test context: Five cell lines viability, CellTiter-Glo ATP luminescence, 48-72 h; active compounds read low
Inconclusive results are not listed.
measurement label: max response (%)
Just the number in %, nothing appended.

These recorded examples may help you get a feel for the data.
{"columns": ["molecule", "unit of measurement", "max response"],
 "data": [
  ["CC1=CC(=O)C2(OC3OC(C)C(O)C(OC(=O)/C=C/c4ccccc4)C3O)C=COC(OC3OC(CO)C(O)C(O)C3O)C12 (stereo not drawn)", "%", -3.56],
  ["C/C=C/C=C/[C@@H]1O[C@](O)([C@H](CC)C(=O)NC/C=C/C=C(\\C)[C@@H](OC)[C@@H](C)C2OC(/C=C/C=C/C=C(\\C)C(=O)c3c(O)cc[nH]c3=O)[C@H](O)[C@@H]2O)[C@H](O)[C@H](O)C1(C)C (stereo partly drawn)", "%", 2.59],
  ["CCCN1CCC(c2cccc(S(C)(=O)=O)c2)CC1", "%", -0.494],
  ["C[C@H](NC(=O)CCc1nc2ccccc2c(=O)[nH]1)c1ccccc1", "%", -24],
  ["CC(NC(=O)CCc1nc2ccccc2c(=O)[nH]1)c1ccccc1 (stereo not drawn)", "%", -18.4],
  ["COc1cc(C(=O)OC[C@H]2O[C@@H](Oc3ccccc3/C=C/C(=O)O)[C@H](O)[C@@H](O)[C@@H]2O)cc(OC)c1OC", "%", -2.66]
]}

Query block: Param item = CCCOC(c1cc2nccc(C(=O)O)c2[nH]1)c1ccccc1Cl (stereo not drawn) ; retrieve measured max response.
Result block: -10.8

Query block: Moving on to the next molecule: Cc1cnc(Nc2ccc(F)cc2Cl)nc1-c1c[nH]c(C(=O)NC(CO)c2cccc(Cl)c2)c1 (stereo not drawn)
Result block: -0.447
